Hey, just so you know, these numbers are from PubChem BioAssay AID1963959.

tested on: T-47D spheroids with HUVEC/MSC, viability; assay: Anticancer human tumor T-47D cell line growth inhibition [PI3K]; details: second compound 0.1 µM; first compound 0.01 µM; stronger effect = lower value;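 also: spheroids exposed to agents for seven days before reading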
Kindly apply the following: Y if viability, T/C is less than 90%, N in every other case.

[[record]]
molecule = "CC(=O)c1c(C)c2cnc(Nc3ccc(N4CCNCC4)cn3)nc2n(C2CCCC2)c1=O + COc1c(OCCCN2CCOCC2)ccc2c3n(c(=NC(=O)c4cnc(N)nc4)nc12)CCN3"
tested_target = "T-47D spheroids with HUVEC/MSC, viability"
label_class = "Y"

[[record]]
molecule = "CCN1CCN(Cc2ccc(Nc3ncc(F)c(-c4cc(F)c5nc(C)n(C(C)C)c5c4)n3)nc2)CC1 + COc1c(OCCCN2CCOCC2)ccc2c3n(c(=NC(=O)c4cnc(N)nc4)nc12)CCN3"
tested_target = "T-47D spheroids with HUVEC/MSC, viability"
label_class = "Y"

[[record]]
molecule = "CC(=O)c1c(C)c2cnc(Nc3ccc(N4CCNCC4)cn3)nc2n(C2CCCC2)c1=O + CC(Nc1ncnc2nc[nH]c12)c1cc2cccc(Cl)c2c(=O)n1-c1ccccc1"
tested_target = "T-47D spheroids with HUVEC/MSC, viability"
label_class = "Y"

[[record]]
molecule = "CC(=O)c1c(C)c2cnc(Nc3ccc(N4CCNCC4)cn3)nc2n(C2CCCC2)c1=O + Cc1nc(NC(=O)N2CCCC2C(N)=O)sc1-c1ccnc(C(C)(C)C(F)(F)F)c1"
tested_target = "T-47D spheroids with HUVEC/MSC, viability"
label_class = "N"

